Provide the recorded TGI for the entries that follow.
Tested on: EKVX NSCLC
assay.comment: NCI tumour cell line growth inhibition, 48 h

Q: What TGI value was documented for this compound, `C=C1CC/C=C(\C)C(=O)C[C@@H]2[C@@H]1CC2(C)C` ?
Result: 27.3 µM

Q: I am curious: what TGI value has been reported for `NCCCNCCCCN(CCCN)/[N+]([O-])=N\O` ?
Result: > 100 µM

Q: What value of TGI has been reported for the following compound? `Cc1cc(Cl)ccc1NC(=O)c1cc2ccccc2cc1O`
Result: > 100 µM

Q: Entry under review: Cc1ccc(OC2CC(n3cnc4ncnc(Cl)c43)OC2Oc2ccc(C)cc2)cc1 (stereo not drawn) . Reported TGI?
Result: > 100 µM

Q: Item under review: COC1OC(COCc2ccc(Cl)cc2)C(OCc2ccc(Cl)cc2)C1N=[N+]=[N-] (stereo not drawn) . Reported TGI?
Result: > 100 µM

Q: Using the record for `O=C(/C=C/c1ccc(O)c(O)c1)c1cc(O)cc(O)c1` , report its TGI.
Result: 57.4 µM

Q: Dear colleague, I am looking for the recorded TGI of the following compound: `O=C(/C=C/c1cc(O)c(O)cc1O)OCCc1ccccc1`
Result: > 95.6 µM

Q: Need TGI of c1ccc2c(c1)ncn2C1CCCCO1 (stereo not drawn) , thanks.
Result: > 100 µM

* * *

Test system: SW-620 colon
assay.comment: NCI tumour cell line growth inhibition, 48 h
assay.metric: TGI

Q: What is its TGI for SW-620 colon? Entry: `O=c1oc2cc(O)ccc2c(O)c1C(c1cccnc1)c1c(O)c2ccc(O)cc2oc1=O`
Result: > 100 µM

Q: Please state recorded TGI (tested on SW-620 colon) of `COc1ccc2c(c1)n([O-])c1ccccc1[n+]2=O`
Result: > 100 µM

Q: Return TGI measured with SW-620 colon given this compound: `O=C1[C@@H]2[C@@H](c3ccccc3)[C@]2(Cl)C(=O)[C@H]2[C@H](c3ccccc3)[C@@]12Cl`
Result: > 100 µM

Q: Test system SW-620 colon; read-out TGI; what value for CCC(=O)c1c(NOC2OC(COC(C)=O)C(OC(C)=O)C(OC(C)=O)C2OC(C)=O)nc(OC)n(C)c1=O (stereo not drawn) ?
Result: > 100 µM

Q: Form field: TGI recorded for `N#Cc1c(N)sc2c1-c1ccccc1OC2` with SW-620 colon (enter value)
Result: > 100 µM

Q: Record `Cc1noc2nnn(-c3ccc(Cl)cc3)c(=O)c12` : what is its TGI with SW-620 colon?
Result: 5.41 µM

Q: GET /values?readout=TGI&system=SW-620 colon&item= `CNC(=O)N(C)COC`
Result: > 100 µM

Q: SW-620 colon / TGI / `Cc1c2cnccc2c(C)c2c1c1ccccc1n2CCCCCCNCc1ccccc1` : value?
Result: 1.67 µM

Q: Reported TGI for SW-620 colon, given CCOC(=O)C(O)(NC(=O)c1ccccc1F)C(F)(F)F (stereo not drawn) ?
Result: > 100 µM

Q: Form field - read-out: TGI; system: SW-620 colon; submitted item: CC(C)C1=CCC2C(=C1)CCC1C(C)(C(=O)O)CCCC21C (stereo not drawn) (tested in a mixture with another compound)
Result: > 100 µM

Q: What measured TGI is associated with COC1OC(COCc2ccc(Cl)cc2)C(OCc2ccc(Cl)cc2)C1N=[N+]=[N-] (stereo not drawn) on SW-620 colon?
Result: > 100 µM

Q: State its TGI on SW-620 colon: `Cc1ccc(-n2[nH]nc(C#N)c2=O)cc1`
Result: > 100 µM

Q: Write down the reported TGI of CCCCCCCCCCCCOP(=O)(O)OCC(N)C(=O)O (stereo not drawn) , test system: SW-620 colon.
Result: > 100 µM

Q: Requested read-out TGI, target or system SW-620 colon, entry `O=C1c2ccccc2C(=O)c2c1ccc(C1C(=O)c3ccccc3C1=O)c2-c1c(C2C(=O)c3ccccc3C2=O)ccc2c1C(=O)c1ccccc1C2=O`
Result: > 100 µM

Q: I'm curious: which TGI was measured for CC(=O)O[C@@H]1C2=C(C)C=C(O2)[C@H]2O[C@]2(C)C[C@H]2C=C(C(=O)O2)[C@H](OC(C)=O)CC1[C@@]1(C)CO1 (stereo partly drawn) tested on SW-620 colon?
Result: 26.1 µM

Q: Can you look up TGI on SW-620 colon for `Cn1c(-c2ccccc2)cc2c3ccsc3c3ccsc3c21` ?
Result: > 100 µM

Q: Tell me reported TGI for `CN(C)CCNC(=O)c1cccc2c1nc(-c1ccccc1)c1ccccc12` , tested with SW-620 colon.
Result: 15.5 µM

Q: API: value(readout= TGI, system= SW-620 colon, query= Cc1ccc(OC2CC(n3cnc4ncnc(Cl)c43)OC2Oc2ccc(C)cc2)cc1 (stereo not drawn) )
Result: > 100 µM

Q: Value wanted: TGI (SW-620 colon) of entry `CCOC(=O)c1ccc(C(=O)/C(C(C)=O)=C2\CCCN2C)n1C`
Result: > 100 µM

Q: Please state recorded TGI (tested on SW-620 colon) of `CC(=O)c1ccc(NC(=O)C(=O)Nn2c(=S)[nH]c3ccccc3c2=O)cc1`
Result: > 100 µM

Q: For the record `Nc1nc(-c2ccccc2)nc(N)c1N=O` , what value of TGI is listed for SW-620 colon?
Result: 5.77 µM

Q: Recorded TGI for Cc1occc1C(=S)Nc1ccc(Cl)c(C(=O)OC(C)C2CC2)c1 (stereo not drawn) with SW-620 colon, please?
Result: > 100 µM

Q: What is its TGI for SW-620 colon? Entry: `COC1(OC)CC(CO)(CNc2cc(Cl)nc(N)n2)C1`
Result: > 100 µM

* * *

What TGI was measured for each of the following?
System: HOP-92 NSCLC
assay.comment: NCI tumour cell line growth inhibition, 48 h
Where a SMILES comes first, the peptide text is derived from it. The star is where a group is joined. Fmoc = O=C(OCC1c2ccccc2-c2ccccc21)*; Boc = CC(C)(C)OC(=O)*
// return numeric value only (unit: µM, not printed)

Q: What does the data say about its TGI? Entry: `CN(C)c1ccccc1CN1CCCN(Cc2ccccc2N(C)C)C1c1ccncc1`
Result: 14.8

Q: What does the record list as TGI for `COc1cc2c(cc1Nc1nc(Nc3ccsc3C(N)=O)c3cc[nH]c3n1)N(C(=O)CN(C)C)CCC2(C)C` ?
Result: 0.833

Q: Fill in the blank: the reported TGI of `CSc1c(C#N)c(N)nc2c(N=Nc3ccc(Cl)cc3)c(N)nn12` is ____.
Result: 8.64

Q: Suppose we examine the molecule CC(C)(C)OC(=O)NCCCCC(NC(=O)OCC1c2ccccc2-c2ccccc21)C(=O)N1CCCC1C(=O)NCC(N)=O (stereo not drawn) (Fmoc-Lys(Boc)-Pro-Gly-NH2; configuration not given here) ; what TGI value has been reported?
Result: 48.2

Q: For `NCCCNC1(c2cc3ccccc3s2)CCCCC1` , what is its reported TGI?
Result: 25.5

Q: Please look up its TGI: `CC(C)CCN=C(N)c1ccc(N2CCN(c3ccc(C(N)=NCCC(C)C)cc3)CC2)cc1`
Result: 24.3

* * *

System: TK-10 renal
assay.comment: NCI tumour cell line growth inhibition, 48 h
For each record, write down the corresponding TGI.

Q: Give recorded TGI with TK-10 renal for the following compound: CC(=Nc1ccccc1)C1=C(O)C(Cc2ccccc2)NC1=O (stereo not given)
Result: > 100 µM

Q: Tell me reported TGI for `CCSc1cc(=O)n(C)c(=O)n1C` , tested with TK-10 renal.
Result: > 100 µM

Q: Form field: TGI recorded for `CCc1cccc(C(C)C)c1N1C(=O)C(=O)C(c2nc3ccccc3s2)C(=O)C1=O` with TK-10 renal (enter value)
Result: > 50 µM

Q: Notebook: pull reported TGI for TK-10 renal, entry `Cc1ccc(-n2[nH]nc(C#N)c2=O)cc1`
Result: > 100 µM

Q: Return TGI measured with TK-10 renal given this compound: CC(=O)O[C@@H]1C2=C(C)C=C(O2)[C@H]2O[C@]2(C)C[C@H]2C=C(C(=O)O2)[C@H](OC(C)=O)CC1[C@@]1(C)CO1 (stereo not given in full)
Result: > 100 µM

* * *

System: M14 melanoma
assay.comment: NCI tumour cell line growth inhibition, 48 h
Record form. Attribute: TGI. Fill in for each entry.

Q: Form field: TGI recorded for `O=C(Nc1nc2ncn(CCNCc3ccccc3)c2c(=O)[nH]1)c1ccccc1` with M14 melanoma (enter value)
Result: > 100 µM

Q: Request body: readout TGI, system M14 melanoma, query CCOC(=O)C1=C(C)N(c2ccc(C)cc2)C2=C(C(=O)N(c3ccccc3)C2c2ccccc2)C1c1ccccc1 (centres undefined) . Return the value.
Result: > 25 µM

Q: Tell me reported TGI for `C/C(=C/C(=O)Nn1c(Cc2ccccc2)n[nH]c1=O)C(=O)O` , tested with M14 melanoma.
Result: > 100 µM

Q: What reported TGI corresponds to `CO/N=C(\C)COc1ccc2c(=O)c(-c3ccccc3)coc2c1` on M14 melanoma?
Result: > 100 µM
